System: CAKI-1
ASSAY NOTES: AUC of dose-response viability curve, drug + dasatinib, normalised to DMSO (arbitrary (AUC of normalised viability)); higher = less growth inhibition
ASSAY CONDITIONS: treatment: drug + dasatinib (fixed dose, not stated); 5 days
RECORDED METRIC: AUC of dose-response viability curve
# output: bare number, no unit

QUERY: Quick one: AUC of dose-response viability curve of COc1ccc2c(c1OC)N=C(NC(=O)c1cccnc1)N1CCN=C21 [PIK-90] + Cc1nc(Nc2ncc(C(=O)Nc3c(C)cccc3Cl)s2)cc(N2CCN(CCO)CC2)n1 ?
RESULT: 1.82

QUERY: GET /values?readout=AUC of dose-response viability curve&item= CNC(=O)c1ccc(C)c(-n2c(C)cc(OCc3ccc(F)cc3F)c(Br)c2=O)c1 + Cc1nc(Nc2ncc(C(=O)Nc3c(C)cccc3Cl)s2)cc(N2CCN(CCO)CC2)n1
RESULT: 2.3

QUERY: What does the record list as AUC of dose-response viability curve for COc1cc2nccc(Oc3ccc(NC(=O)Nc4cc(C)on4)c(Cl)c3)c2cc1OC [Tivozanib (AV-951)] + Cc1nc(Nc2ncc(C(=O)Nc3c(C)cccc3Cl)s2)cc(N2CCN(CCO)CC2)n1 ?
RESULT: 1.75

QUERY: Item C=CC(=O)N1CCC[C@@H](n2nc(-c3ccc(Oc4ccccc4)cc3)c3c(N)ncnc32)C1 + Cc1nc(Nc2ncc(C(=O)Nc3c(C)cccc3Cl)s2)cc(N2CCN(CCO)CC2)n1 has what recorded AUC of dose-response viability curve?
RESULT: 2.18

QUERY: Which AUC of dose-response viability curve value belongs to COc1ccc2cc(-c3[nH]c(-c4ccc(S(C)=O)cc4)nc3-c3ccncc3)ccc2c1 (centres undefined) [Tie2 kinase inhibitor] + Cc1nc(Nc2ncc(C(=O)Nc3c(C)cccc3Cl)s2)cc(N2CCN(CCO)CC2)n1 ?
RESULT: 2.41

QUERY: What does the data say about its AUC of dose-response viability curve? Entry: Cc1cn(-c2cc(NC(=O)c3ccc(C)c(Nc4nccc(-c5cccnc5)n4)c3)cc(C(F)(F)F)c2)cn1 [Nilotinib (AMN-107)] + Cc1nc(Nc2ncc(C(=O)Nc3c(C)cccc3Cl)s2)cc(N2CCN(CCO)CC2)n1
RESULT: 2.38

QUERY: Any idea what AUC of dose-response viability curve was measured for CC1(C)CCC(CN2CCN(c3ccc(C(=O)NS(=O)(=O)c4ccc(NCC5CCOCC5)c([N+](=O)[O-])c4)c(Oc4cnc5[nH]ccc5c4)c3)CC2)=C(c2ccc(Cl)cc2)C1 [ABT-199 (GDC-0199 )] + Cc1nc(Nc2ncc(C(=O)Nc3c(C)cccc3Cl)s2)cc(N2CCN(CCO)CC2)n1 ?
RESULT: 2.29

QUERY: AUC of dose-response viability curve for Nc1ncnc2c1c(-c1cnc3[nH]ccc3c1)nn2C1CCCC1 [PP-121] + Cc1nc(Nc2ncc(C(=O)Nc3c(C)cccc3Cl)s2)cc(N2CCN(CCO)CC2)n1 ?
RESULT: 1.41

QUERY: Item under review: CCOc1cc2ncc(C#N)c(Nc3ccc(F)c(Cl)c3)c2cc1NC(=O)/C=C/CN(C)C [Pelitinib (EKB-569)] + Cc1nc(Nc2ncc(C(=O)Nc3c(C)cccc3Cl)s2)cc(N2CCN(CCO)CC2)n1 . Reported AUC of dose-response viability curve?
RESULT: 1.17
